B1: WSB1 (parent)
chain: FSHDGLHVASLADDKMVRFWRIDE

Variants of: B1
Test: protein stability index of a GFP-peptide fusion (GPS, HEK-293T) (PSI 1-6); higher = more stable;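 note: lentivirally expressed fusions sorted by FACS into six bins by GFP to DsRed ratio, PSI derived from sequencing read proportions per bin multiplied by bin number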
Conditions: c terminus: a fixed tail appended
Reported protein stability index values are given for each entry in this list.

SEQUENCE_CHANGE | protein stability index
R21N | 2.15
R21L | 1.59
K15S | 1.76
D23K | 2.02
S2I | 2.46
D13T | 1.36
L11V | 2.03
H3G | 2.95
H3Y | 1.19
D4C | 1.73
E24R | 1.78
I22W | 1.77
S10N | 1.75
K15I | 1.49
D13P | 1.56
A12D | 2.32
V17C | 3.55
D23E | 1.58
G5Y | 1.27
A12K | 1.71
F19P | 2.65
W20H | 2.67
